FYI, the data here is from patent US20020025332A1.

Tested on: human sebocytes
Experiment: Sebum suppression: 14C-acetate label remaining in cultured human sebocytes after treatment
Assay type: cell-based
Conditions: Homo sapiens, 10 μM test agent + 10 μM Retinol; read-out: % of Control
Each entry below lists one item and its recorded activity at 10 µM value.
Use % as the unit, but write only the number.

Some compounds with known activity at 10 µM results, for comparison:
1. O=[N+]([O-])c1cc(S(=O)(=O)Nc2ccc3c(c2)OCCO3)ccc1Cl
1.2
2. CC(O)c1cccc(NS(=O)(=O)c2c(F)c(F)c(F)c(F)c2F)c1 (centres unmarked)
84.4
3. CN(C)c1cccc(NS(=O)(=O)c2ccc3ccccc3c2)c1
63.9
4. O=S(=O)(Nc1ccc2c(c1)OCCO2)c1ccc2ccccc2c1
17.9

Consider the additional compound presented here.
Prompt line: Look up activity at 10 µM for this compound: CC(O)c1cccc(NS(=O)(=O)c2ccc(Cl)c([N+](=O)[O-])c2)c1 (centres unmarked)
Response line: 84.8
